Target: BRM (Homo sapiens, UniProt P51531)
Construct: made in house; host or cells: High Five insect cells
Sequence (P51531 whole entry): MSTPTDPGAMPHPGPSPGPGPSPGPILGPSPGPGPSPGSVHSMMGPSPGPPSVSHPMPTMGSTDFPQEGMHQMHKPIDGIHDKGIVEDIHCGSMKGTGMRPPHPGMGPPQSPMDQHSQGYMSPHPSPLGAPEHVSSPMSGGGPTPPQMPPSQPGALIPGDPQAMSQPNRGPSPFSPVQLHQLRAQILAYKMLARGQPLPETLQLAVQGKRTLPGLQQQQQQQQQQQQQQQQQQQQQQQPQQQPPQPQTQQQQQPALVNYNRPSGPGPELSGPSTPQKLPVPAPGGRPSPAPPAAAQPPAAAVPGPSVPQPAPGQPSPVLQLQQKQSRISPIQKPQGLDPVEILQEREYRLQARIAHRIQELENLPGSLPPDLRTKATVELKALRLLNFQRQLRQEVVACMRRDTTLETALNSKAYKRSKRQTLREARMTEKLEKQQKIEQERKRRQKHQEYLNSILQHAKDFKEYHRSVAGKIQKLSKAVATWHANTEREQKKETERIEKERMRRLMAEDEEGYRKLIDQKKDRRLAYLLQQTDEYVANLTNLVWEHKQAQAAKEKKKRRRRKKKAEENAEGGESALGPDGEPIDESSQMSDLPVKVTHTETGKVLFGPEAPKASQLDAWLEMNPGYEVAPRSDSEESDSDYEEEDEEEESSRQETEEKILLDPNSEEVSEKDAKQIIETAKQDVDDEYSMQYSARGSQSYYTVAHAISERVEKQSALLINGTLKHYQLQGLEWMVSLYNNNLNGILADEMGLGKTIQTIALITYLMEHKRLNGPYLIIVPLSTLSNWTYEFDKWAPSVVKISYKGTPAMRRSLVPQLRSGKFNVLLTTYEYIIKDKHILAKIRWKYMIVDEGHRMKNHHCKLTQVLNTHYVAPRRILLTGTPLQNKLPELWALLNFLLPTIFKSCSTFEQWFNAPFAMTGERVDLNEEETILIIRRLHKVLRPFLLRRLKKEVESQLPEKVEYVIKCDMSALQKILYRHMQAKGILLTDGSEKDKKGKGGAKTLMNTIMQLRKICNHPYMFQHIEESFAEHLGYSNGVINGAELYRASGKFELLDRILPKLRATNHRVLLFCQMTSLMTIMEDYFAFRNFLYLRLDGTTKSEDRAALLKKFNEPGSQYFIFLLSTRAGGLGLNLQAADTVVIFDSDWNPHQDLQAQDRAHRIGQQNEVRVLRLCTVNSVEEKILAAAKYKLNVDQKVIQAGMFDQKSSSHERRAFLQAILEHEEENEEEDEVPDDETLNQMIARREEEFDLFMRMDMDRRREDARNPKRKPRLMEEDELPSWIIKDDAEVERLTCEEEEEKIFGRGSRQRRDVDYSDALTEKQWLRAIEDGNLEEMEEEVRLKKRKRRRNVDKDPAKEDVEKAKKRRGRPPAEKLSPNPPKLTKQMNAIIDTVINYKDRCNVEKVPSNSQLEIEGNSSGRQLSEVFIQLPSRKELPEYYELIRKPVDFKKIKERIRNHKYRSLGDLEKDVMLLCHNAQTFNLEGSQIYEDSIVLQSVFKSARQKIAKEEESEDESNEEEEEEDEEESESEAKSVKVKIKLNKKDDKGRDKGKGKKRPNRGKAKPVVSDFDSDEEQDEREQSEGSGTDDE
Experiment: ATPase catalytic activity of BRM, ADP-Glo in vitro biochemical assay
Details: ADP-Glo ATPase assay, 30 nM BRM, 400 μM ATP
Procedure: The ATPase catalytic activity of BRM or BRG-1 was measured by an in vitro biochemical assay using ADP-Glo™ (Promega, V9102). The ADP-Glo™ kinase assay is performed in two steps once the reaction is complete. The first step is to deplete any unconsumed ATP in the reaction. The second step is to convert the reaction product ADP to ATP, which will be utilized by the luciferase to generate luminesce and be detected by a luminescence reader, such as Envision. […]
pIC50: −log10 of the molar value.
Criterion: pIC50 meeting or surpassing 7. Met: true. Not met: false.

COCCNc1cccc(-c2ccc3cnc(CNC(=O)c4ccc(C(F)F)c(S(C)(=O)=O)c4)cc3n2)n1 [Compound 80]
false
[2H]C1([2H])OC([2H])([2H])[C@H](C)S(=O)(=O)c2cc(C(=O)NCc3cc4nc(N5CCOc6cc(C)cnc65)ccc4cn3)ccc21 [Compound 741]
true
O=C(NCc1cc2nc(N3CCCc4cc5c(cc43)OCCO5)ccc2cn1)c1ccc2c(c1)S(=O)(=O)CCOC2 [Compound 793]
true

Does the compound CN(C)c1ccnc2c1CCCN2c1ccc2cnc(CNC(=O)c3ccc4c(c3)S(=O)(=O)CCOC4)cc2n1 [Compound 837] have recorded pIC50 that is 7 or more?
true

Does the compound CN(C)c1cccc(-c2ccc3cnc(CNC(=O)c4ccc5c(c4)S(=O)(=O)CCOC5)cc3n2)n1 [Compound 303] have recorded pIC50 that is 7 or more?
true

Does the compound O=C(NCc1cc2nc(-c3ccc(OC4CC4)cn3)ccc2cn1)c1ccc2c(c1)S(=O)(=O)CCOC2 [Compound 851] have recorded pIC50 that is 7 or more?
false

Does the compound CN(c1cccc(-c2ccc3cnc(CNC(=O)c4ccc5c(c4)S(=O)(=O)CCOC5)cc3n2)n1)C1CCOCC1 [Compound 174] have recorded pIC50 that is 7 or more?
true

Does the compound COC[C@@H](C)Nc1cccc(-c2ccc3cnc(CNC(=O)c4ccc(C(F)F)c(S(C)(=O)=O)c4)cc3n2)n1 [Compound 60] have recorded pIC50 that is 7 or more?
false

Reference source for all entries: patent US20230416248A1
